MEASURED_ON: Yap3 (UniProt P38749)
Sequence: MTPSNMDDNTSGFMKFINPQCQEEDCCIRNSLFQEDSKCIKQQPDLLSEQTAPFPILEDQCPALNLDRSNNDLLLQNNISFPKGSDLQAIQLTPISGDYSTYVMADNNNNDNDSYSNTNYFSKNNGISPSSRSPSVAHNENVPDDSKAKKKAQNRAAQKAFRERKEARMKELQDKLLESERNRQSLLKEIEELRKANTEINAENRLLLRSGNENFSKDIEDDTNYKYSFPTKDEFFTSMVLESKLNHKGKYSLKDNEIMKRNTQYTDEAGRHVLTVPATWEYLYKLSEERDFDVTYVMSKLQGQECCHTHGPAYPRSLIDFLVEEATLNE
TEST_SUMMARY: PBM E-score (8-mer binding enrichment) (E-score (-0.5 to 0.5)); higher = stronger / more preferred TF binding
SETUP_CONDITIONS: protein concentration: 100 nM; construct: GST-full length
The full ranking holds about 33,000 sequences; the median of “E-score (-0.5 to 0.5)” is about -0.0034, and the highest 2% start at about 0.25. The sample holds the highest values, similar sequences and a random draw of the others, so the mix is not that of the screen.
QUANTITY_NAME: PBM E-score
Reply briefly: the number, and no unit.

{"columns": ["SEQ", "MEASURED_ON", "OBSERVED"],
 "data": [
  ["CACGCTAA", "Yap3 (UniProt P38749)", 0.0663]
]}

Quick one: give measured PBM E-score for "AATTAGTG"
0.269

Quick one: give measured PBM E-score for "CAAGGTAG"
-0.142

Quick one: give measured PBM E-score for "AGTAGAAG"
0.0935

Quick one: give measured PBM E-score for "CATATAGC"
0.233

Quick one: give measured PBM E-score for "AACTAATA"
0.342

Quick one: give measured PBM E-score for "GTCGCGAC"
0.324

Quick one: give measured PBM E-score for "AATTAGGG"
-0.107

Quick one: give measured PBM E-score for "GTGACTAA"
0.262

Quick one: give measured PBM E-score for "GCCAGTCC"
-0.343

Quick one: give measured PBM E-score for "CTTTGACC"
0.0628

Quick one: give measured PBM E-score for "CTCTCGGA"
0.00281

###

Listed next: entries and their corresponding PBM E-score.
MEASURED_ON: Yap3 (UniProt P38749)
Sequence: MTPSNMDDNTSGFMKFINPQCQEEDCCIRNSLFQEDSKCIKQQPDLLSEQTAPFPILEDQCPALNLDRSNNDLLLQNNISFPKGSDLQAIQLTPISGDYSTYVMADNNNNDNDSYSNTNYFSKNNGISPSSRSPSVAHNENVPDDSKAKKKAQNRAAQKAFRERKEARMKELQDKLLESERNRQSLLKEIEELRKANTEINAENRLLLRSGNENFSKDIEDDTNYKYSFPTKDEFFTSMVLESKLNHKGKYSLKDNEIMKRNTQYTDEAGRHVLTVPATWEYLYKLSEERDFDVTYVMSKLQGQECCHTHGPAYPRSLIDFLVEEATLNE
TEST_SUMMARY: PBM E-score (8-mer binding enrichment) (E-score (-0.5 to 0.5)); higher = stronger / more preferred TF binding
SETUP_CONDITIONS: protein concentration: 100 nM; construct: GST-full length
In all, about 33,000 sequences were measured (“E-score (-0.5 to 0.5)”: median about -0.0034, highest 2% from about 0.25 on). This is one part of a sample in which the highest values are shown more often than they occur.

Here are 6 sequences together with their reported answers.
{"columns": ["SEQ", "OBSERVED"],
 "data": [
  ["ATTATATC", 0.16],
  ["AGCGCTTA", 0.0641],
  ["CTGACACC", -0.174],
  ["ACTTACGC", 0.122],
  ["CGGAAGAC", -0.00677],
  ["GCCGAATA", 0.115]
]}

Quick one: give measured PBM E-score for "ACAAATTG"
0.173

Quick one: give measured PBM E-score for "CCTGACAG"
-0.0186

Quick one: give measured PBM E-score for "AATTACGA"
0.33

Quick one: give measured PBM E-score for "ACACCACC"
-0.209

Quick one: give measured PBM E-score for "CGCGCTGA"
0.0303

Quick one: give measured PBM E-score for "ATAAATTA"
0.365

Quick one: give measured PBM E-score for "AATTACGC"
0.208
